Biological target: Cytochrome P450 2C9 (Homo sapiens, UniProt P11712)
Sequence (P11712 whole entry): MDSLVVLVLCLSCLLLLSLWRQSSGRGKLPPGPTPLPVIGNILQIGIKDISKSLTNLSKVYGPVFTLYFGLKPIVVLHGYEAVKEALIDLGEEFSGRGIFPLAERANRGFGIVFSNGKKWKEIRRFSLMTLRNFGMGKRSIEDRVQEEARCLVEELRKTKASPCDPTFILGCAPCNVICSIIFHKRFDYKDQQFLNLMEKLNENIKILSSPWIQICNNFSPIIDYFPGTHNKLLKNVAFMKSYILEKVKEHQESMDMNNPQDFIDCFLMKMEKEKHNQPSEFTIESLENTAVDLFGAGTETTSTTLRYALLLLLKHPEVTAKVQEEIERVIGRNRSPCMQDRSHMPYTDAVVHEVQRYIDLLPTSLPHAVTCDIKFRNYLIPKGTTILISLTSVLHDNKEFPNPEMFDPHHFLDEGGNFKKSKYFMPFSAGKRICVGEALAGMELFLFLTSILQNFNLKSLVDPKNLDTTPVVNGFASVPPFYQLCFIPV
readout_name: AC50

| compound | readout_name | result |
| --- | --- | --- |
| CCCCOC1(c2ccccc2)OC(=O)c2ccccc21 (stereo not drawn) | AC50 | 17.8 µM (inconclusive) |
| N=c1sc2ccccc2n1CC[S-].c1ccc2c(c1)sc1[n+]2CCS1 | AC50 | 1.58 µM (inconclusive) |
| O=C(Oc1ccc2ccccc2c1Br)N1CCCCCC1 | AC50 | 25.1 µM (inconclusive) |
| Cc1nc2cncnc2n(C2CC2)c1=O | AC50 | 7.94 µM (inconclusive) |
| Cc1nc2nc(-c3ccc(Cl)cc3)nn2c(C)c1Cl | AC50 | 20 µM (inconclusive) |
| O[C@@H]1[C@H](O)[C@H]2[C@@H](O)CCN2C[C@@H]1O | AC50 | 25.1 µM (inconclusive) |
| COc1ccccc1CC(=O)O/N=C(\N)c1cccc([N+](=O)[O-])c1 | AC50 | 22.4 µM (inconclusive) |
| O=C(NC(=S)Nc1ccc(Oc2ccc(Cl)cc2)cc1)c1ccccc1 | AC50 | 2.82 µM (inconclusive) |
| c1cncc(-c2nc(NCc3cccs3)c3ccccc3n2)c1 | AC50 | 1 µM (inconclusive) |
| Cc1nnc(NC(=O)c2oc3c(ccc4ccccc43)c2C)s1 | AC50 | 17.8 µM (inconclusive) |

stdin: Dear colleague, I am looking for the recorded AC50 of the following compound: Cc1ncc([N+](=O)[O-])n1CCOC(=O)NC(NCc1ccccc1)C(Cl)(Cl)Cl (stereo not drawn)
stdout: 12.6 µM (inconclusive)

stdin: Dear colleague, I am looking for the recorded AC50 of the following compound: `CC(=O)OC[C@@H]1O[C@H](CCO/N=C(\C)CCC(=O)OC[C@@H]2O[C@H](C#Cc3ccccc3)C=C[C@@H]2Oc2ccc(C)cc2)C=C[C@@H]1OC(C)=O`
stdout: 6.31 µM (inconclusive)

stdin: Dear colleague, I am looking for the recorded AC50 of the following compound: `COCCn1c(=O)c(-c2cn(C)c3ccccc23)nc2cncnc21`
stdout: 10 µM (inconclusive)
